Origin of the recorded values: patent US20250171423A1

target-or-test-system: Human complement C1s enzyme (Homo sapiens, UniProt P09871)
Construct: purified from human serum, Complement Technology, Inc; purchased Complement Technology, Inc; host or cells: human serum
Sequence (P09871 438-688 limits assumed): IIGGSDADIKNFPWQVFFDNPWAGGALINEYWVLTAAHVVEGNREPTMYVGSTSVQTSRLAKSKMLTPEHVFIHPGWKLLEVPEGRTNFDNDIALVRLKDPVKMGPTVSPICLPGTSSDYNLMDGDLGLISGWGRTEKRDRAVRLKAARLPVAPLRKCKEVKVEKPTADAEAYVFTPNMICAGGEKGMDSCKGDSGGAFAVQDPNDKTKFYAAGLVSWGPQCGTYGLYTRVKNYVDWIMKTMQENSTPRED
Sequence (P09871 16-437 partner limits assumed): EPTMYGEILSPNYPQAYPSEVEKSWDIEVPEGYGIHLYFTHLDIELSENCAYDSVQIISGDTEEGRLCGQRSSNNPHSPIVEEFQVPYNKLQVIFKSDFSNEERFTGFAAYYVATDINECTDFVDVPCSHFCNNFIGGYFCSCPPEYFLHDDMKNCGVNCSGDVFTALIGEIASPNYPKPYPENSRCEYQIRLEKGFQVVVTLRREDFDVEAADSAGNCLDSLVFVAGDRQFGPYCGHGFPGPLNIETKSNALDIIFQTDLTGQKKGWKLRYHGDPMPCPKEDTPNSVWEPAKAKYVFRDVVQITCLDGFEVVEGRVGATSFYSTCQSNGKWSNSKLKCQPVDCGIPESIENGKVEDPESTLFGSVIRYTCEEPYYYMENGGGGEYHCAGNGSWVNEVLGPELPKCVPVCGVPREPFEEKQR
experimental-details: Human C1s Enzyme Assay
Type: biochemical
protocol-conditions: human C1s 1.16 nM, 5 min preincubation, substrate Z-L-Lys-SBzl 100 μM, A405; read-out: C1s Protease Activity
Consider the following compounds and their measured IC50 readings.
experimental-readout: IC50

compound	observed-value
COC(=N)c1csc(CNC(=O)[C@@H]2C[C@]3(C)C[C@@H]3N2C(=O)CNC(=O)c2ccc(Oc3ccccc3)cc2)c1	100 to 1000 nM
C[C@@]12C[C@@H]1N(C(=O)CNC(=O)c1ccc(Oc3ccc(S(C)(=N)=O)cc3)cc1)[C@H](C(=O)NCc1cc(C(=N)N)cs1)C2 (stereo partly shown)	< 100 nM
N=C(N)c1csc(CNC(=O)[C@@H]2CC(O)(C(F)(F)F)CN2C(=O)CNC(=O)CCCOc2ccccc2)c1 (stereo partly shown)	< 100 nM
N=C(N)c1csc(CNC(=O)[C@@H]2C[C@@H](N3CCCC3)CN2C(=O)CNC(=O)c2ccc(Oc3ccccc3)cc2)c1	< 100 nM
CS(=O)(=O)[C@@H]1C[C@@H](C(=O)NCc2cc(C(=N)N)cs2)N(C(=O)CNC(=O)c2ccc(Oc3ccccc3)cc2)C1	< 100 nM
COC[C@H]1C[C@@H](C(=O)N[C@H](C)c2cc(C(=N)N)cs2)N(C(=O)CNC(=O)c2ccc(Oc3ccccc3)cc2)C1 (relative stereo)	< 100 nM
N=C(N)c1csc(CNC(=O)C23CCC(CC2)N3C(=O)CNC(=O)c2ccc(Oc3ccccc3)cc2)c1	100 to 1000 nM
C[C@@H](NC(=O)[C@@H]1C[C@@]23COCCCCCCCCCCCCCC(=O)N[C@@H](CCOc4ccccc4)C(=O)NCC(=O)N1[C@H]2C3)c1cc(C(=N)N)cs1	< 100 nM
C[C@@]12C[C@@H]1N(C(=O)CNC(=O)CCOc1ccccc1)[C@H](C(=O)NCc1cc(C(=N)N)cs1)C2	< 100 nM
CN/C(=N/C#N)c1csc(CNC(=O)[C@@H]2C[C@]3(C)C[C@@H]3N2C(=O)CNC(=O)c2ccc(Oc3ccccc3)cc2)c1	> 1000 nM
CC(COc1ccccc1)CC(=O)NCC(=O)N1CC2(C[C@H]1C(=O)NCc1cc(C(=N)N)cs1)OCCO2 (stereo partly shown)	< 100 nM
C[C@@H](NC(=O)[C@@H]1C[C@@H](Oc2ccc(F)cc2)CN1C(=O)CNC(=O)CCCOc1ccccc1)c1cc(C(=N)N)cs1	< 100 nM
N=C(N)c1csc(CNC(=O)[C@@H]2C[C@@H](c3ccc(F)cc3)CN2C(=O)CNC(=O)CCCOc2ccccc2)c1	< 100 nM
C[C@@]12C[C@@H]1N(C(=O)CNC(=O)c1ccc(Oc3ccccc3)cc1)[C@H](C(=O)NCc1nnc(C(=N)N)o1)C2	> 1000 nM
C[C@@H](NC(=O)[C@@H]1CC2(CN1C(=O)CNC(=O)c1ccccc1)OCCO2)c1cc(C(=N)N)cs1	< 100 nM
N=C(N)c1csc(CNC(=O)[C@@H]2C[C@@H](OC3CC3)CN2C(=O)CNC(=O)c2ccc(Oc3ccccc3)cc2)c1	< 100 nM
N=C(N)c1csc([C@H](NC(=O)[C@@H]2CC3(CN2C(=O)CNC(=O)CCCOc2ccccc2)OCCO3)C2CCCC2)c1	> 1000 nM
C[C@@]12C[C@@H]1N(C(=O)CNC(=O)c1ccc(Oc3ccccc3)cc1)[C@H](C(=O)NCc1ncc(C(=N)N)s1)C2	< 100 nM
CNC(=O)C(NC(=O)[C@@H]1C[C@@H](OC(F)F)CN1C(=O)CNC(=O)c1ccc(Oc2ccccc2)cc1)c1cc(C(=N)N)cs1 (stereo partly shown)	> 1000 nM
C[C@@H](NC(=O)[C@@H]1C[C@](F)(COCCCCCC(=O)O)CN1C(=O)CNC(=O)CCCOc1ccccc1)c1cc(C(=N)N)cs1	< 100 nM
COCCCC(=O)NCC(=O)N1[C@H]2C[C@@]2(C)C[C@H]1C(=O)NCc1cc(C(=N)N)cs1	100 to 1000 nM
CO/N=C(\N)c1csc(CNC(=O)[C@@H]2C[C@]3(C)C[C@@H]3N2C(=O)CNC(=O)c2ccc(Oc3ccccc3)cc2)c1	> 1000 nM
N=C(N)c1csc(CNC(=O)[C@@H]2C[C@@H](C(F)F)CN2C(=O)CNC(=O)c2ccc(Oc3ccccc3)cc2)c1	< 100 nM
C[C@@]12C[C@@H]1N(C(=O)CNC(=O)c1ccc(C3(c4ccccc4)COC3)cc1)[C@H](C(=O)NCc1cc(C(=N)N)cs1)C2	< 100 nM
C[C@@]12C[C@@H]1N(C(=O)CNC(=O)c1ccc(Oc3ccccc3)cc1)[C@H](C(=O)NCc1cc(C(N)=O)cs1)C2	> 1000 nM
